# test-system: HIV-1 IN (Human immunodeficiency virus type 1 group M subtype B)
# assay-overview: biochemical
measured-metric: pIC50
Answers are plain numbers, as −log10 of the molar value.

Illustrative cases are given below, each with its answer.
compound	pIC50
O=C(O)C(=Cc1ccc(O)c(O)c1)C(=Cc1ccc(O)c(O)c1)C(=O)O [Compound 37]	5.66
O=C(C=Cc1ccc(O)c(O)c1)NCC(NC(=O)C=Cc1ccc(O)c(O)c1)C(=O)O (stereo not drawn) [Compound 35, 2-3-dicaffeoyldiamidopropionic acid]	6.24
O=C(/C=C/c1ccc(O)c(O)c1)OC[C@H](OC(=O)/C=C/c1ccc(O)c(O)c1)C(=O)O [Compound 19, Dicaffeoyl-L-glyceric acid]	6.28

Record pIC50 for all entries; do not skip any.
1. O=C(C=Cc1ccc(O)c(O)c1)NCC(OC(=O)C=Cc1ccc(O)c(O)c1)C(=O)O [Compound 40, Bis-dicaffeoyl-L-isoserine]
2. O=C(C=Cc1ccc(O)c(O)c1)NCCCCC(NC(=O)C=Cc1ccc(O)c(O)c1)C(=O)O [Compound 41, 1,4-dicaffeoyl-L-lysine]
3. O=C(C=Cc1ccc(O)c(O)c1)Nc1ccc(C(=O)O)cc1NC(=O)C=Cc1ccc(O)c(O)c1 [Compound 36, Bis-3,4-dicaffeoyldiamidobenzoic acid]

1. 6.71
2. 5.65
3. 6.13
